# study-system: human N-His6-mortalin (Δ1-51) (human, UniProt P38646 52-679)
# Sequence (P38646 52-679, stated change not applied): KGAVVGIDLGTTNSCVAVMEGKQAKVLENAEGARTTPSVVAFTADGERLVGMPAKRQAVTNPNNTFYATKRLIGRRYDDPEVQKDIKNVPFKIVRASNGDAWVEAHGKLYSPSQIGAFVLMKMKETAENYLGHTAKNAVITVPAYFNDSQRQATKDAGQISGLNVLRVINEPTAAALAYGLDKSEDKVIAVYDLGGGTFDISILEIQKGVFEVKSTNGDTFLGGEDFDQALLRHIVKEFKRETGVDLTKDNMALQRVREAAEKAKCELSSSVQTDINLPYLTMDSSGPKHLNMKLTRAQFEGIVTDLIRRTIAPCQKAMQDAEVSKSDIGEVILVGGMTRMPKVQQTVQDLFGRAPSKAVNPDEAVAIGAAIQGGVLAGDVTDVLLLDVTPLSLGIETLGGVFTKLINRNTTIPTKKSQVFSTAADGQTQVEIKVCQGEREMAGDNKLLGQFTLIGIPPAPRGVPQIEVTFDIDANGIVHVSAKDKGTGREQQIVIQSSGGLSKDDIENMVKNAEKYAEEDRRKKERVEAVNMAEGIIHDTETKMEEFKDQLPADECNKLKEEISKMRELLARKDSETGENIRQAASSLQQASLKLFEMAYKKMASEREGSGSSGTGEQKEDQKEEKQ
# assay-details: fluorescence polarisation
Where no end group is shown, it is not given here. fluorescein = fluorescein label attached at the C-terminus
test-readout: pKd
# pKd = -log10(concentration in molar units)

Q: Using the record for LSLPPVKLHK-fluorescein [LSLPPVKLHK-fluorescein] , report its pKd.
A: 5.92
